Listing of recorded log10 of TGI by entry.
Test system: HCC-2998 colon
Assay: NCI tumour cell line growth inhibition, 48 h
MEASUREMENT_NAME: log10 of TGI (log10 of the value in µM)

> print(dat)
                                   compound  measurement.name  assay.result
1  COc1cccc(NC(=O)c2ccc(C(F)(F)F)nc2Nc2ccc(Cl)cc2C)c1      log10 of TGI          1.27
2  C/C=C1/CN2CC[C@@H]3c4ccccc4N4[C@H](C(=O)OC)[C@H]1C[C@H]2[C@]34/C=C/C1=COC[C@@H]2[C@H]1C[C@H]1c3c(c4ccccc4n3C)C[C@@H]2N1C      log10 of TGI          0.12
3  Cn1c(-c2c(N)n(Cc3ccc(Cl)cc3)c3nc(C#N)c(C#N)nc23)nc2ccccc21      log10 of TGI          0.55
4  O=C(Oc1ccccc1Cl)c1cccnc1Nc1ccnc(C(F)(F)F)c1      log10 of TGI          1.48
5  C=C(Cl)C(Br)(CCl)CCC(Cl)C(C)C (centres undefined) (tested in a mixture with another compound)      log10 of TGI          1.03
6  Cc1cc(Cl)ccc1OCC(=O)Oc1c(Cl)c(Cl)c(Cl)c(Cl)c1Cl      log10 of TGI          1.69
7  CN(C)c1ncc(-c2c[nH]c3ccccc23)nc1-c1c[nH]c2ccccc12      log10 of TGI          0.61
8  C[C@H](C(=O)N1C(=O)O[C@@H](c2ccccc2)[C@H]1C)[C@H](c1ccccc1)N(Cc1ccccc1)OC(=O)c1ccccc1      log10 of TGI          1.93

----------
Test system: EKVX NSCLC
Assay: NCI tumour cell line growth inhibition, 48 h
MEASUREMENT_NAME: TGI (µM)

> print(dat)
                                    compound  measurement.name  unit.tag  modifier  assay.result
 1    O=C(c1cccs1)N(C(=S)OCc1ccccn1)c1ccccc1               TGI        µM         =            70
 2  O=C1c2ccccc2N2OC3C4CCC(C4)C3C12c1ccccc1 (stereo not given)               TGI        µM         >           100
 3  OC(CCN1CCN(CCOC(c2ccc(F)cc2)c2ccc(F)cc2)CC1)c1ccccc1 (stereo not given)               TGI        µM         =          26.1
 4                CCCN(CCC)c1ccc(C=O)c(OC)c1               TGI        µM         =          76.1
 5  CCCC/C=C1\CCC(CN2CCOCC2)C1=O (stereo not given)               TGI        µM         =          28.3
 6  Cc1nc(SCC(=O)Nc2ccccc2)c2sc(=S)n(-c3ccccc3)c2n1               TGI        µM         >            10
 7  N=C(N)SC1c2ccccc2-c2cc([N+](=O)[O-])ccc21 (stereo not given)               TGI        µM         =            29
 8  COc1cc(/C=C\c2cc(/C=C\c3ccc(O)c(OC)c3)n(C(=O)Nc3ccc(C(F)(F)F)cc3)n2)ccc1O               TGI        µM         =          38.4
 9  COc1ccc(CNCCCN2C(=O)c3ccc4c5c(ccc(c35)C2=O)C(=O)N(CCCNCCCCNCCCN)C4=O)c(OC)c1OC               TGI        µM         =          19.3
10             Cc1c2ccccc2nc2[nH]c3ccncc3c12               TGI        µM         =          98.5

----------
Test system: CCRF-CEM leukemia
Assay: NCI tumour cell line growth inhibition, 48 h; in the data active = GI50 below about 0.43 µM; inactive = the rest
Outcome codes: active, inactive

COMPOUND	CATEGORY
O=C1c2ccccc2C(=O)c2c1c(NCCNCCO)c1cc[nH]c1c2NCCNCCO	inactive
O=c1c2ccccc2c(C=NCCNCCO)c2oc3ccccc3n12	inactive
CC(C)(C)c1cc2c(OP(c3ccccc3)c3ccccc3)c(c1)Cc1cc(C(C)(C)C)cc(c1OP(c1ccccc1)c1ccccc1)Cc1cc(C(C)(C)C)cc(c1OP(c1ccccc1)c1ccccc1)Cc1cc(C(C)(C)C)cc(c1OP(c1ccccc1)c1ccccc1)C2	inactive
Cc1ccc2nc(NC(=O)CSC(=S)N3CCN(Cc4ccccc4)CC3)sc2c1	inactive
CN([N-]C(=O)CC(=O)[N-]N(C)C(=S)c1ccccc1)C(=S)c1ccccc1.[Cu+2]	active
COc1cc2c(C#N)n3c(c2cc1OC)C(=O)C(c1ccccc1)Oc1ccccc1-3 (stereo not drawn)	inactive
CCc1nc2cc(/C=C/C(=O)NO)c(F)cc2c(=O)n1CCc1ccccc1	inactive
CO/N=C(\COc1ccc2c(=O)cc(-c3ccccc3)oc2c1)c1ccc(OC)cc1	inactive

----------
Test system: KM12 colon
Experiment: NCI tumour cell line growth inhibition, 48 h
Listing of recorded log10(TGI) by entry.
MEASUREMENT_NAME: log10(TGI) (log10 of the value in µM)

> print(dat)
                                   compound  measurement.name  assay.result
1  O=C(Oc1ccccc1Cl)c1cccnc1Nc1ccnc(C(F)(F)F)c1        log10(TGI)          1.51
2  CN1CCN(c2ccc3nc(-c4ccc5nc(-c6ccc(C(F)(F)F)cc6)[nH]c5c4)[nH]c3c2)CC1        log10(TGI)          0.51
3               CCCCCCCCCCCCCCCC[N+](C)(C)C        log10(TGI)          0.45
4  Fc1ccc(C(OCCN2CC3CC2CN3CCCc2ccccc2)c2ccc(F)cc2)cc1 (stereo unspecified)        log10(TGI)          1.33
5           CCCCCCCCOC(=O)c1cc(O)c(O)c(O)c1        log10(TGI)          1.24
6  C=CCCC12CCCC(=O)C1Sc1ccc3ccccc3c12 (stereo unspecified)        log10(TGI)          1.49

----------
Test system: SK-OV-3 ovarian
Test: NCI tumour cell line growth inhibition, 48 h
Listing of recorded TGI by entry.
MEASUREMENT_NAME: TGI

> print(dat)
                                   compound  assay.result
1  C1CSCCSS[C@@H]2CCCCC2SC1 (stereo partly specified)      > 100 µM
2  CN(C)CCCNC(=O)c1cc(NC(=O)CCCn2c3ccccc3c3ccccc32)cn1C      > 100 µM
3  O=C(CN1C(=O)c2ccccc2C1=O)OC1C=CCCC1 (stereo unspecified)      > 100 µM
4  CCOP(=O)(C/C(=N/NC(C)(C)C)C(=O)Nc1nc2ccc(C)cc2s1)OCC      > 100 µM
5  Cn1c(-c2c(N)n(Cc3ccc(Cl)cc3)c3nc(C#N)c(C#N)nc23)nc2ccccc21       5.67 µM
6  CCOC(=O)c1c(SCC#N)n(-c2ccccc2)c(=S)n(-c2ccccc2)c1=O      > 100 µM

----------
Test system: HCT-116 colon
Assay: NCI tumour cell line growth inhibition, 48 h
Listing of recorded TGI by entry.

COMPOUND	TGI
C=C(Cl)C(Br)(CCl)CCC(Cl)C(C)C (centres undefined) (tested in a mixture with another compound)	3.92 µM
C/C(CC(=O)Nc1ccc(C)cc1)=N\NC(N)=S	> 100 µM
CCN(CC)CC1CCCCN1CC(=O)N1c2ccc(Br)cc2C(=O)Nc2cccnc21 (centres undefined)	> 100 µM
Oc1ccc2ccccc2c1N=Nc1ccc(N=Nc2ccccc2)cc1	> 100 µM
O=S(O)CCCCSSCCCCS(=O)(O)=S	> 100 µM
CN1CCN(c2ccc3nc(-c4ccc5nc(-c6ccc(C(F)(F)F)cc6)[nH]c5c4)[nH]c3c2)CC1	2.6 µM
COc1ccc(-c2ccc(=O)oc2-c2cc(OC)c(OC)c(OC)c2)cc1O	> 100 µM
CC(=O)NC1C(OCc2ccccc2)OC(CO)C(O)C1OCC(=O)NC(C)C(=O)NC(CCC(=O)OCCNC(=O)c1cccc2cc3ccccc3nc12)C(N)=O (centres undefined)	31.8 µM
COC(=O)C1=C(O)C(C(=O)OC)[C@@]2(O)[C@@H](C(=O)OC)C(c3ccc(OC(=O)/C(=C/c4ccccc4)c4ccccc4)cc3)C[C@@H]1[C@@H]2C(=O)OC (some centres undefined)	> 100 µM
